- measurement_target: UniProt P49652
- Sequence (P49652 whole entry): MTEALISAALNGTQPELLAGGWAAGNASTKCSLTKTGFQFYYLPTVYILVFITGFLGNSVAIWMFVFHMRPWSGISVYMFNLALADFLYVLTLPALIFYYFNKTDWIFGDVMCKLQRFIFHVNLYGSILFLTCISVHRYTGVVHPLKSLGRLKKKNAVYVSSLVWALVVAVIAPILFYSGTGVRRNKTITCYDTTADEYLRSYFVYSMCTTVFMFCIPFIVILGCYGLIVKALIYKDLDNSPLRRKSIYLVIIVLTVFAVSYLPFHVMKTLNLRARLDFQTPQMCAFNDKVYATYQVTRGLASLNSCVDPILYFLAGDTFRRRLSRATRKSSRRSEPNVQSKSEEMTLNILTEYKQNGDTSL
- assay_overview: Increase in [Ca2+]i in 1321N1 astrocytoma cells expressing turkey P2Y1 receptor
- Type: cell-based
pEC50: −log10 of the molar value.
outcome_measure: pEC50

INSERT INTO measurements (mol, val) VALUES
  ('[BH3-][P@@](=O)(OC[C@H]1O[C@@H](n2cnc3c(N)nc(SC)nc32)[C@H](O)[C@@H]1O)OP(=O)([O-])[O-].[Na+].[Na+].[Na+]', 7.42);

Cited source: paper PMC4354947
